STUDY SYSTEM: UniProt:Q15125
Sequence (Q15125 whole entry): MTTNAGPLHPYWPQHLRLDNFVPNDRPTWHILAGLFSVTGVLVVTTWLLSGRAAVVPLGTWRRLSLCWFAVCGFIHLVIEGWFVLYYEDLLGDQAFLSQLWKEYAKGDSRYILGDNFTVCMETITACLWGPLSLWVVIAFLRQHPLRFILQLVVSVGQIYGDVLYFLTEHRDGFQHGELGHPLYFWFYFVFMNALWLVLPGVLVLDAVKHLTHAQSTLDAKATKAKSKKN
PROCEDURE SUMMARY: Competition binding assay (SPA) to determine compound affinity to EBP
SETTINGS: radioligand [3H]-Ifenprodil 10 nM; Ki=IC50/(1+[L]/Kd); HEK293 membrane; read-out: hEBP SPA Ki
ENDPOINT NAME: Ki (nM)

Measured on UniProt:Q15125, CC(C)(CN1CC[C@]2(CCS(=O)(=O)C2)C1)Oc1ccc(C(F)(F)F)cc1 (single isomer, unassigned) [Compound 141B] has a documented Ki of 61

Measured on UniProt:Q15125, CC(C)(CN1CCC2(C1)CS(=O)(=O)C2)Oc1cccc(C(F)(F)F)c1 has a documented Ki of 16

Measured on UniProt:Q15125, O=S1(=O)CCC2(CC1)CN(CCOc1ccc(C(F)(F)F)cc1)C2 has a documented Ki of 13

[a] CC(C)(Cc1ccc(C2CCC(F)(F)CC2)c(Cl)c1)CN1CCC2(C1)CS(=O)(=O)C2
[b] CC(C)(CN1CCC2(CC1)CS(=O)(=O)C2)Oc1ccc(C(F)(F)F)cc1
Lookup: Please tell me which of the two, a or b , has the higher reported Ki value. // output: label of the selected item
Found: a
(a: 30 nM, b: 16 nM)

[A] C[C@H](Cc1cnc(C(F)(F)F)nc1)CN1CCC2(CC1)CS(=O)(=O)C2 (single isomer, unassigned) [215B*]
[B] C[C@@H](Cc1cnn(CC(F)(F)F)c1)CN1CCC2(C1)CS(=O)(=O)C2 (single isomer, unassigned) [Compound 154A]
[C] CC(Cc1cc(C(F)(F)F)nn1C(C)C)CN1CCC2(C1)CS(=O)(=O)C2 (racemic)
[D] CC(C)(CN1CCC2(C1)CS(=O)(=O)C2)Oc1ccccc1F
Lookup: Thanks in advance: please rank these 4 entries by Ki, highest to lowest. Arrange the labels as the request states and list them.
Found: D, B, A, C

[A] CCC(C)(C)c1ccc(CC(C)CN2CCC3(C2)CS(=O)(=O)C3)cc1 (racemic)
[B] CC(C)(CN1CC[C@@]2(CCS(=O)(=O)C2)C1)Oc1ccc(C(F)(F)F)cc1 (single isomer, unassigned) [Compound 141A]
Lookup: Identify the entry with the smaller Ki: A or B . // output: label of the selected item
Found: A
(A: 23 nM, B: 44 nM)

Sourced from patent US20240400579A1
